# System: A. baumannii clinical specimen MDR
# Test Description: microbe, parasite or virus in culture
# Experimental Setup: broth microdilution, Mueller-Hinton broth, 5 × 10^5 CFU/mL, 24 h at 37 °C, clinical MDR isolate, triplicate
Ends that are not written are not given here.
Property: A. baumannii MIC (µg/mL)
# number only, unit µg/mL dropped from output

Solved cases (4 shown):
Exercise: I have this substance here, GLKKKIKEVGKEAAKAAAKAAGKAALGAVSEAV [K3K4B2] , and I need its recorded A. baumannii MIC.
Solution: 6.25

Exercise: I have this substance here, ALWKTLLKKVLKAAAKAALKAVLVGANA [K4K20S4] , and I need its recorded A. baumannii MIC.
Solution: 3.125

Exercise: I have this substance here, ALWMTLLKKVLKAAAKAALNAVLVGANA-OH [S4] , and I need its recorded A. baumannii MIC.
Solution: 12.5

Exercise: I have this substance here, GLWSKIKEVGKEAAKAAAKAAGKAALGAVSEAV-OH [B2] , and I need its recorded A. baumannii MIC.
Solution: 12.5

The record that follows has no A. baumannii MIC shown yet.
Exercise: I have this substance here, ALWKTLLKKVLKAAAK [K4S4(1-16)] , and I need its recorded A. baumannii MIC.
Solution: 6.25

Values from paper PMC10892451
